target: hGLP-1R (Homo sapiens, UniProt P43220); assay: Functional cAMP activation in the presence of 0.1% casein (no HSA); format: cell-based; settings: in the presence of 0.1% casein (no HSA); geometric mean; read-out: Relative cAMP EC50, hGLP-1R;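 also: intracellular cAMP rise after 30 min at 37 °C read by HTRF, normalized between buffer only (0%) and maximal control ligand (100%), four-parameter variable-slope fit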
Sequence (P43220 24-463): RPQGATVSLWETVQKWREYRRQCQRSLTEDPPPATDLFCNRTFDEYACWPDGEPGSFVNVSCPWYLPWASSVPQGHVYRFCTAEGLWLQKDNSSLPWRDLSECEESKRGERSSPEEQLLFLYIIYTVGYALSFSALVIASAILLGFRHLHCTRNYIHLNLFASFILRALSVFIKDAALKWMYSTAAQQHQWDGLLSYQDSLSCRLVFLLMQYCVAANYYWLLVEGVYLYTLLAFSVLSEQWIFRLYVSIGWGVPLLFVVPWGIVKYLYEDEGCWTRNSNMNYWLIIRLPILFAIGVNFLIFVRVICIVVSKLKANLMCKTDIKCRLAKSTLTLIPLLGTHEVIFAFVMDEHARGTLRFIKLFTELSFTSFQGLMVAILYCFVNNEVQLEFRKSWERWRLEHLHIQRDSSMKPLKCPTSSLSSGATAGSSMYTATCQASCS
Starred links: 1 amine or outer side, 2 acyl side, 3 side chain; linkers in the order of their positions; H or OH if unused. Non-standard residues stand in square brackets, D forms with d. Groups on a side chain read outwards from the residue. *: point of attachment. C20 diacid = O=C(O)CCCCCCCCCCCCCCCCCCC(=O)*; C18 diacid = O=C(O)CCCCCCCCCCCCCCCCC(=O)*; γGlu = O=C(O)[C@H](CCC(=O)[*:2])N[*:1]; αMeL = CC(C)C[C@](C)(N)C(=O)O; Orn = NCCC[C@H](N)C(=O)O; AEEA = NCCOCCOCC(=O)O; Aib = CC(C)(N)C(=O)O
Please note: EC50 exactly at 3 nM is 0 (no). Only values below 3 nM get 1 (yes).

{"Substance": "H-Y[Aib]QGTFTSDFSK[αMeL]LDKK([AEEA-γGlu-C20 diacid])AQ[Aib]AFIEYLLEGAPSSGAPPPSEG-NH2 [Example 47]", "Group label": "0 (no)"}

Ask: Criterion: EC50 strictly below 3 nM. Is it met by H-Y[Aib]QGTFTSDFS[Orn][αMeL]LDKK([AEEA-γGlu-C18 diacid])AQ[Aib]AFIEYLLE[Aib]GHSSGAPPPSGS-NH2 [Example 241] ?
Result: 1 (yes)

Ask: Now consider H-Y[Aib]QGTFTSDFSK[αMeL]LDKK([AEEA-γGlu-C18 diacid])AQ[Aib]AFIEYLIE[Aib]SPSSGAPPPSGS-NH2 [Example 805] and answer again.
Result: 1 (yes)

Ask: Again, but for H-Y[Aib]QGTFTSDFS[Orn][αMeL]LDKK([AEEA-γGlu-C18 diacid])AQ[Aib]AFIEYLLAGGPSSGAPPPEGS-NH2 [Example 93]
Result: 1 (yes)
